target: D(4) dopamine receptor (Homo sapiens); experiment: antagonism of human DRD4 receptor – cell-based, confirmation (AID 743372); details: cells expressing human D4 receptor, antagonist mode
Give measured IC50 for each item. Keep answers brief.

Which IC50 is reported for this molecule? Clc1ccc(CN2CCOC(CCc3ccccc3)C2)cc1 (stereo not given)
290 nM

Given Fc1ccc(CN2CCOC(CCc3ccccc3)C2)cc1 (stereo not given) , state its recorded IC50.
1140 nM

So what does the record say about IC50 for FC(F)(F)Oc1ccc(CN2CCOC(CCc3ccccc3)C2)cc1 (stereo not given) ?
160 nM

Requested read-out: IC50. Entry: `COc1ccc(CN2CCO[C@@H](CCc3ccccc3)C2)cc1`
100 nM

Look at this molecule and give its reported IC50. Fc1cccc(F)c1CN1CCOC(CCc2ccccc2)C1 (stereo not given)
3880 nM
